Where a name gives a salt, the structure may show the parent alone.
METRIC: melting point

// solved cases for melting point follow
- COMPOUND: "c1ccc(-c2ncc(CCCN3CCN(c4ncccn4)CC3)[nH]2)cc1 [Compound 125]"
  melting point: "133 to 135 °C"
- COMPOUND: "CC(c1cnc(-c2ccccc2)[nH]1)N1CCC(Cc2ccccc2)CC1 (stereo not drawn) (as salt: hydrochloride) [Compound 91, dihydrochloride salt]"
  melting point: "169 to 171 °C"
- COMPOUND: "COc1ccc(-c2nc(CN3CCC(c4ccccc4)CC3)c[nH]2)cc1 (as salt: hydrochloride) [Compound 47, dihydrochloride]"
  melting point: "196 to 199 °C"
- COMPOUND: "c1ccc(CC2CCN(CC3CCCc4[nH]c(-c5ccccc5)nc43)CC2)cc1 (stereo not drawn) [Compound 138]"
  melting point: "189 to 191 °C"

Lab note: next compound to report on.
## Input Please indicate melting point recorded for O=C(CCc1cnc(-c2ccccc2)[nH]1)N1CCN(c2ncccn2)CC1 [Compound 122]
## Output 143 to 148 °C

====

Listing of entries alongside the reported Ki.
# MEASUREMENT_TARGET: human dopamine D4 receptor subtype (Homo sapiens)
# Sequence (P21917 1-419): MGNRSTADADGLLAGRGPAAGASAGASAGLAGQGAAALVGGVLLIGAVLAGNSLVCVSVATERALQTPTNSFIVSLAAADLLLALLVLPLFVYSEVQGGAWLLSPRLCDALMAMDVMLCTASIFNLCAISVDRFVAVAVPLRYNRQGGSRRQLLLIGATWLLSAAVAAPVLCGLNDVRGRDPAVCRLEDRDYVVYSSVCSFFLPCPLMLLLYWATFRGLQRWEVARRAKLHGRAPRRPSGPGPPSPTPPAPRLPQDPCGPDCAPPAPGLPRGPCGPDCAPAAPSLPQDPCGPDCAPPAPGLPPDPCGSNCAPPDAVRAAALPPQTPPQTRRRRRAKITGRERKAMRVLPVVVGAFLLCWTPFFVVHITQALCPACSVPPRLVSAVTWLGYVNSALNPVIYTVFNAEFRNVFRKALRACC
Counter-ions that a name gives are not always drawn.
The figure you give is taken to be in nM; do not add the unit.

Answered cases to consult:
- COMPOUND: "c1ccc(-c2ncc(CN3CCN(c4ncccn4)CC3)[nH]2)cc1 [Compound 23, dihydrochloride]"
  METRIC: "Ki"
  RESULT_NUMBER: 2.7
- COMPOUND: "c1ccc(-c2nc(CN3CCN(c4ccccn4)CC3)c[nH]2)cc1 [Compound 24, dihydrochloride]"
  METRIC: "Ki"
  RESULT_NUMBER: 0.85

Now turn to the next compound.
## Input Item c1ccc(-c2ncc(CN3CCN(c4ccccc4)CC3)[nH]2)cc1 : provide Ki
## Output 5

====

Counter-ions that a name gives are not always drawn.
METRIC: melting point

- COMPOUND: "O=C(c1cnc(-c2ccccc2)[nH]1)N1CCN(c2ncccn2)CC1"
  RESULT: "231 to 232 °C"

## Input Report melting point for Ic1nc(-c2ccccc2)[nH]c1CN1CCN(c2ncccn2)CC1 (as salt: hydroiodid) [Compound 90, hydroiodide salt]
## Output 196 to 199 °C

## Input Specify melting point for COc1ccccc1N1CCN(Cc2cnc(-c3cccc(OC)c3OC)[nH]2)CC1 (as salt: hydrochloride) [Compound 21, dihydrochloride] and stop.
## Output 217 to 218 °C

## Input Report melting point, nothing else, for this compound: O=C(/C=C/c1cnc(-c2ccccc2)[nH]1)N1CCN(c2ncccn2)CC1
## Output 235 to 236 °C

## Input Input O=C(c1ccccc1)c1ncc(CN2CCN(c3ncccn3)CC2)[nH]1 , output reported melting point.
## Output 177 to 179 °C

## Input Provide measured melting point value, entry: c1ccc(-c2nc(-c3ccccc3)c(CN3CCN(c4ncccn4)CC3)[nH]2)cc1
## Output 221 to 225 °C

## Input Look up and report measured melting point for this entry: CCc1ccc(OC)c(-c2ncc(CN3CCN(c4ccccc4OC)CC3)[nH]2)c1 (as salt: hydrochloride) [Compound 55, dihydrochloride]
## Output 61 to 64 °C

## Input For the compound c1ccc(CC2CCN(Cc3cnc(-c4cccc5ccccc45)[nH]3)CC2)cc1 , give its measured melting point value.
## Output 81 to 83 °C

## Input Give the value of melting point reported for the following: c1ccc(CC2CCN(Cc3ncc(-c4ccccc4)[nH]3)CC2)cc1 (as salt: fumarate)
## Output 155 to 157 °C

====

# Dopamine Receptor D3 (Homo sapiens, UniProt P35462): pKi values follow
# Sequence (P35462 whole entry): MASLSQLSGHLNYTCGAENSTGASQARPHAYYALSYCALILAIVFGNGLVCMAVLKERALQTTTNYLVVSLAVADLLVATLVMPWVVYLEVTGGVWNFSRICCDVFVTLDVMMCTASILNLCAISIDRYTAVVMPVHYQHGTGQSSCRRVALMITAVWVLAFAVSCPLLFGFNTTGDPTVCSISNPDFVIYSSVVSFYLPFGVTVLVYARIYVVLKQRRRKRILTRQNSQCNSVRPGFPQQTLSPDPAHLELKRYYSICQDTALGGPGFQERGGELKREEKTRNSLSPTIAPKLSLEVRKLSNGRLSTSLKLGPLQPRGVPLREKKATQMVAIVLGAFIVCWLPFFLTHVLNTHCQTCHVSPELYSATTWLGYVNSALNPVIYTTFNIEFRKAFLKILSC
Where a name gives a salt, the structure may show the parent alone.
The value called pKi is obtained by taking minus log10 of the concentration in mol/L.

- MOLECULE: "c1ccc(-c2ncc(CN3CCN(c4ccccc4)CC3)[nH]2)cc1"
  pKi: 6.77

Please find the next molecule below.
## Input Give me measured pKi, please, for this molecule: c1ccc(-c2ncc(CN3CCN(c4ncccn4)CC3)[nH]2)cc1 [Compound 23, dihydrochloride]
## Output 5.09

====

// reported pKi for each item listed
# MEASUREMENT_TARGET: Dopamine Receptor D2 (Homo sapiens)
# Sequence (P14416 whole entry): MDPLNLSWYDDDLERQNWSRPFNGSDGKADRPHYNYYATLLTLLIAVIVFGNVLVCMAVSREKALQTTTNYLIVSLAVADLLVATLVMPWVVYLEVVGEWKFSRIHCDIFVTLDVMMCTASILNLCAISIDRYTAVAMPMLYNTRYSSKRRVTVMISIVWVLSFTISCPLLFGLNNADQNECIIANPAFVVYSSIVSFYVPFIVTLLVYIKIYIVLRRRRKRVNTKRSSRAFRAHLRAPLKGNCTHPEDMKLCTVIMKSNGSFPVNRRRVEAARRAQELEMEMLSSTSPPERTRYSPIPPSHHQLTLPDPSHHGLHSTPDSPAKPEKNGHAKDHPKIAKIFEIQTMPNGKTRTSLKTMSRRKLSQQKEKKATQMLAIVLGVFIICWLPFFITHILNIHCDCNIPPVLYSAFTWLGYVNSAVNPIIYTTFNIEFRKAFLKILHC
# PROCEDURE_DETAILS: D2 receptor binding activity (Example XXXIX)
Structures can show the parent of a compound that is named as a salt.
Schema: pKi number; meaning minus log10 of the concentration expressed in molar units.

- MOLECULE: "c1ccc(-c2nc(CN3CCN(c4ccccn4)CC3)c[nH]2)cc1 [Compound 24, dihydrochloride]"
  METRIC: "pKi"
  RESULT_NUMBER: 5.99

Then this molecule:
## Input Determine from records and report pKi for c1ccc(-c2ncc(CN3CCN(c4ccccc4)CC3)[nH]2)cc1
## Output 6.62

====

Structures can show the parent of a compound that is named as a salt.
Reported melting point is given for each of the following molecules.

## Input Supply recorded melting point for c1ccc(-c2ncc(CCN3CCN(c4ncccn4)CC3)[nH]2)cc1 here.
## Output 142 to 144 °C

## Input Return melting point for the following molecule: COc1ccc(Cl)cc1-c1ncc(CN2CCN(c3ccccc3OC)CC2)[nH]1 (as salt: hydrochloride) [Compound 43, dihydrochloride]
## Output 138 to 143 °C

## Input Give reported melting point value for Cc1ccc(-c2ncc(CN3CCN(c4ncccn4)CC3)[nH]2)cc1
## Output 178 to 180 °C

## Input Indicate its recorded melting point; the molecule in question is Fc1ccccc1-c1ncc(CN2CCC(c3ccccc3)CC2)[nH]1 (as salt: maleate)
## Output 142 to 144 °C

## Input Kindly indicate its recorded melting point. Item: COc1ccccc1N1CCN(Cc2cnc(-c3ccccc3)[nH]2)CC1
## Output 105 to 107 °C

## Input Return value of melting point for input COc1cc(Br)cc(-c2ncc(CN(C)C)[nH]2)c1OC (as salt: hydrochloride) [Compound 16, dihydrochloride] , no commentary.
## Output 194 °C

## Input Given the molecule c1ccc(-c2ncc(CN3CCC(c4ccccc4)CC3)[nH]2)cc1 (as salt: hydrochloride) [Compound 26, dihydrochloride] , write its reported melting point.
## Output 238 to 240 °C

====

Structures can show the parent of a compound that is named as a salt.
METRIC: melting point

Solved cases below.
- MOLECULE: "Clc1ccc(N2CCN(Cc3cnc(-c4ccccc4)[nH]3)CC2)cc1Cl"
  RESULT: "179 to 181 °C"
- MOLECULE: "Fc1ccc(N2CCN(Cc3cnc(-c4ccccc4)[nH]3)CC2)cc1 (as salt: hydrochloride) [Compound 56, dihydrochloride]"
  RESULT: "64 to 68 °C"
- MOLECULE: "COc1ccc(Br)cc1-c1ncc(CN(C)C)[nH]1 (as salt: hydrochloride) [Compound 1, dihydrochloride]"
  RESULT: "242 to 243 °C"
- MOLECULE: "COc1ccccc1N1CCN(Cc2cnc(-c3ccc(F)cc3)[nH]2)CC1"
  RESULT: "95 to 97 °C"
- MOLECULE: "Cc1ccc(Cl)cc1N1CCN(Cc2cnc(-c3ccccc3)[nH]2)CC1 (as salt: hydrochloride) [Compound 60, dihydrochloride]"
  RESULT: "142 to 145 °C"

Now for a further molecule.
## Input Given the molecule c1cnc(N2CCN(Cc3cnc(C4CCCCC4)[nH]3)CC2)nc1 , write its reported melting point.
## Output 210 to 213 °C

====

Counter-ions that a name gives are not always drawn.
// reported melting point per item

- MOLECULE: "COc1cccc(-c2ncc(CN3CCC(c4ccccc4)CC3)[nH]2)c1 (as salt: hydrochloride) [Compound 50, dihydrochloride]"
  melting point: "114 to 117 °C"
- MOLECULE: "C[C@@H]1CN(c2ncccn2)C[C@H](C)N1Cc1cnc(-c2ccccc2)[nH]1"
  melting point: "130 to 135 °C"

The record that follows has no melting point shown yet.
## Input Specify reported melting point for the molecule shown: Fc1ccnc(N2CCN(Cc3cnc(-c4ccccc4)[nH]3)CC2)n1 (as salt: hydrochloride) [Compound 58, dihydrochloride]
## Output 188 to 190 °C

Source: patent US20030018025A1
